- ASSAY_COMMENT: Measurement of lipophilicity (log P), n-octanol/PBS
- Assay type: physicochemical
- CONDITION_LABEL: mean of 3
Consider the following molecules; for each one, report its logP.
Number only, no unit.

Consider the molecule O=C(O)CCC(NC(=O)NC(CCCCN(CC(=O)O)C(=O)COCCOCCNC(=O)C(CCCCNC(=O)CCCc1ccc(I)cc1)NC(=O)CN1CCN2CCN3CCN(CC1)CC(=O)[O][68Ga]([O]C(=O)C2)[O]C(=O)C3)C(=O)O)C(=O)O (stereo not shown) [[^68Ga]1h] . State its measured logP.
−1.89

Consider the molecule O=C(O)CC[C@H](NC(=O)N[C@@H](CCC(=O)N(CCOCCOCCNC(=O)CN1CCN2CCN3CCN(CC1)CC(=O)[O][68Ga]([O]C(=O)C2)[O]C(=O)C3)CC(=O)O)C(=O)O)C(=O)O [[^68Ga]1n] . State its measured logP.
−3.06

Consider the molecule O=C(O)CCC(NC(=O)NC(CCCCN(CC(=O)O)C(=O)COCCOCCNC(=O)CN1CCN2CCN3CCN(CC1)CC(=O)[O][68Ga]([O]C(=O)C2)[O]C(=O)C3)C(=O)O)C(=O)O (stereo not shown) [[^68Ga]1e] . State its measured logP.
−2.88

Consider the molecule Cc1ccc(CCCC(=O)NCCCCC(NC(=O)CN2CCN3CCN4CCN(CC2)CC(=O)[O][68Ga]([O]C(=O)C3)[O]C(=O)C4)C(=O)NCCOCCOCC(=O)N(CCCCC(NC(=O)NC(CCC(=O)O)C(=O)O)C(=O)O)CC(=O)O)cc1 (stereo not shown) [[^68Ga]1g] . State its measured logP.
−2.42

====

Consider the following compounds; for each one, report its intake of mouse organ: Kidney.
- System: PSMA^+ PC-3 PIP tumors
- ASSAY_COMMENT: MicroPET/CT imaging of mice transplanted with prostate cancer cell lines
- Assay type: in vivo, nude mouse
- CONDITION_LABEL: 150 min after injection
The reply should contain only the number, in % ID/g.

Please report the measured intake of mouse organ: Kidney for O=C(O)CCC(NC(=O)NC(CCCCN(CC(=O)O)C(=O)COCCNC(=O)C(CCCCNC(=O)CCCc1ccc(I)cc1)NC(=O)CN1CCN2CCN3CCN(CC1)CC(=O)[O][68Ga]([O]C(=O)C2)[O]C(=O)C3)C(=O)O)C(=O)O (stereo not shown) [[^68Ga]1k] tested on PSMA^+ PC-3 PIP tumors.
11.40

Please report the measured intake of mouse organ: Kidney for O=C(O)CCC(NC(=O)NC(CCCCN(CC(=O)O)C(=O)COCCOCCNC(=O)CN1CCN2CCN3CCN(CC1)CC(=O)[O][68Ga]([O]C(=O)C2)[O]C(=O)C3)C(=O)O)C(=O)O (stereo not shown) [[^68Ga]1e] tested on PSMA^+ PC-3 PIP tumors.
0.70

Please report the measured intake of mouse organ: Kidney for Cc1ccc(CCCC(=O)NCCCCC(NC(=O)CN2CCN3CCN4CCN(CC2)CC(=O)[O][68Ga]([O]C(=O)C3)[O]C(=O)C4)C(=O)NCCOCCOCC(=O)N(CCCCC(NC(=O)NC(CCC(=O)O)C(=O)O)C(=O)O)CC(=O)O)cc1 (stereo not shown) [[^68Ga]1g] tested on PSMA^+ PC-3 PIP tumors.
15.75

Please report the measured intake of mouse organ: Kidney for O=C(O)CCC(NC(=O)NC(CCCCN(CC(=O)O)C(=O)COCCOCCNC(=O)C(CCCCNC(=O)CCCc1ccc(I)cc1)NC(=O)CN1CCN2CCN3CCN(CC1)CC(=O)[O][68Ga]([O]C(=O)C2)[O]C(=O)C3)C(=O)O)C(=O)O (stereo not shown) [[^68Ga]1h] tested on PSMA^+ PC-3 PIP tumors.
6.40

====

- SYSTEM_TESTED: PSMA (Homo sapiens)
- Sequence (Q04609 whole entry): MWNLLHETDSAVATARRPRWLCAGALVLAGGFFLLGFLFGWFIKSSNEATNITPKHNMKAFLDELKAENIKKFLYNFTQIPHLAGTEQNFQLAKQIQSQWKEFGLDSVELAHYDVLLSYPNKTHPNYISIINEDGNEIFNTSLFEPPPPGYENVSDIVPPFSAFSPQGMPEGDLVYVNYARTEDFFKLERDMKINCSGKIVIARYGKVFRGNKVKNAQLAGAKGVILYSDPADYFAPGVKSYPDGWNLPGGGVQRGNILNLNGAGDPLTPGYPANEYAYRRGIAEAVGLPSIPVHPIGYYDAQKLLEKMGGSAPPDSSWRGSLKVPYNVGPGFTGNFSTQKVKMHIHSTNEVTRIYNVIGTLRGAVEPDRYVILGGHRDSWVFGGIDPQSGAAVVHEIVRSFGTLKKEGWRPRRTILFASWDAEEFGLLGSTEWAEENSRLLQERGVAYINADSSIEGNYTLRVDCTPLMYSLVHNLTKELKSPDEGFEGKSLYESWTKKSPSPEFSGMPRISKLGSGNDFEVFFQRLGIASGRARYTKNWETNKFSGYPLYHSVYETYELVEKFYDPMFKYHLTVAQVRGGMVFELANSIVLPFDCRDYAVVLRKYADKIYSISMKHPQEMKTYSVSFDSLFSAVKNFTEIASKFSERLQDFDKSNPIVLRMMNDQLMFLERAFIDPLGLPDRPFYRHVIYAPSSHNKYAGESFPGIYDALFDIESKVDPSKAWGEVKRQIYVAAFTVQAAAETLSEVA
- ASSAY_COMMENT: Measurement of binding capacity: competition with [^125I]30 on 22RV1 cells
- Parameters: host or cells: 22RV1 human prostate cancer cells
- CONDITION_LABEL: 22RV1 cells, [^125I]30 0.1 nM, 37° C., 2 hours; read-out: IC50
- Procedure: To confirm the binding capacity of the compounds of the present invention to PSMA, the following experiment was performed. RPMI1640 supplemented with 1% BSA (bovine serum albumin) was used as a buffer solution. [^125I]30 (0.1 nM) obtained in Comparative Example 1 was added to a vessel containing 22RV1 cells (5×10^4), to which the compound represented by formula 1 was loaded at 9 concentrations (1.00×10^−4˜1.00×10^−12 M), followed by stirring at 37° C. for 2 hours. […]
Rule: measured IC50 below 200 nM gets satisfied; anything equal to or greater than 200 nM gets not satisfied.

State whether 200 nM exceeds IC50 recorded for O=C(O)CCC(NC(=O)NC(CCC(=O)N(CC(=O)O)Cc1cn(CCOCCNC(=O)CN2CCN3CCN4CCN(CC2)CC(=O)[O][Ga]([O]C(=O)C3)[O]C(=O)C4)nn1)C(=O)O)C(=O)O (stereo not shown) .
not satisfied

State whether 200 nM exceeds IC50 recorded for O=C(O)CC[C@H](NC(=O)N[C@@H](CCCCN(CC(=O)O)C(=O)COCCNC(=O)CN1CCN2CCN3CCN(CC1)CC(=O)[O][Ga]([O]C(=O)C2)[O]C(=O)C3)C(=O)O)C(=O)O .
satisfied

State whether 200 nM exceeds IC50 recorded for O=C(O)CC[C@H](NC(=O)N[C@@H](CCC(=O)N(CCOCCOCCNC(=O)CN1CCN2CCN3CCN(CC1)CC(=O)[O][Ga]([O]C(=O)C2)[O]C(=O)C3)CC(=O)O)C(=O)O)C(=O)O .
satisfied

State whether 200 nM exceeds IC50 recorded for O=C(O)CC[C@H](NC(=O)N[C@@H](CCCCNC(=O)N(Cc1cn(CCOCCNC(=O)CN2CCN3CCN4CCN(CC2)CC(=O)[O][Ga]([O]C(=O)C3)[O]C(=O)C4)nn1)c1ccncc1)C(=O)O)C(=O)O .
not satisfied

State whether 200 nM exceeds IC50 recorded for O=C(O)CC[C@H](NC(=O)N[C@@H](CCC(=O)N(CCOCCOCCNC(=O)CN1CCN2CCN3CCN(CC1)CC(=O)[O][Ga]([O]C(=O)C2)[O]C(=O)C3)CCC(=O)O)C(=O)O)C(=O)O .
not satisfied

State whether 200 nM exceeds IC50 recorded for O=C(O)CC[C@H](NC(=O)N[C@@H](CCCCN(CCC(=O)O)C(=O)CCc1cn(CCOCCNC(=O)CN2CCN3CCN4CCN(CC2)CC(=O)[O][Ga]([O]C(=O)C3)[O]C(=O)C4)nn1)C(=O)O)C(=O)O .
satisfied

State whether 200 nM exceeds IC50 recorded for O=C(O)CC[C@H](NC(=O)N[C@@H](CCCCN(CC(=O)O)C(=O)COCCNC(=O)[C@H](CCCCNC(=O)CCCc1ccc(I)cc1)NC(=O)CN1CCN2CCN3CCN(CC1)CC(=O)[O][Ga]([O]C(=O)C2)[O]C(=O)C3)C(=O)O)C(=O)O .
satisfied

====

- Test system: PSMA^+ PC-3 PIP tumors
- ASSAY_COMMENT: MicroPET/CT imaging of mice transplanted with prostate cancer cell lines
- Type: in vivo, nude mouse
- CONDITION_LABEL: 50 min after injection
Consider the following molecules; for each one, report its intake of mouse organ: Kidney.
The reply should contain only the number, in % ID/g.

Consider the molecule O=C(O)CCC(NC(=O)NC(CCCCN(CC(=O)O)C(=O)COCCNC(=O)C(CCCCNC(=O)CCCc1ccc(I)cc1)NC(=O)CN1CCN2CCN3CCN(CC1)CC(=O)[O][68Ga]([O]C(=O)C2)[O]C(=O)C3)C(=O)O)C(=O)O (stereo not shown) [[^68Ga]1k] . State its measured intake of mouse organ: Kidney.
10.80

Consider the molecule Cc1ccc(CCCC(=O)NCCCCC(NC(=O)CN2CCN3CCN4CCN(CC2)CC(=O)[O][68Ga]([O]C(=O)C3)[O]C(=O)C4)C(=O)NCCOCCOCC(=O)N(CCCCC(NC(=O)NC(CCC(=O)O)C(=O)O)C(=O)O)CC(=O)O)cc1 (stereo not shown) [[^68Ga]1g] . State its measured intake of mouse organ: Kidney.
24.20

Consider the molecule O=C(O)CCC(NC(=O)NC(CCCCN(CC(=O)O)C(=O)COCCOCCNC(=O)CN1CCN2CCN3CCN(CC1)CC(=O)[O][68Ga]([O]C(=O)C2)[O]C(=O)C3)C(=O)O)C(=O)O (stereo not shown) [[^68Ga]1e] . State its measured intake of mouse organ: Kidney.
15.84

Consider the molecule O=C(O)CCC(NC(=O)NC(CCCCN(CC(=O)O)C(=O)COCCOCCNC(=O)C(CCCCNC(=O)CCCc1ccc(I)cc1)NC(=O)CN1CCN2CCN3CCN(CC1)CC(=O)[O][68Ga]([O]C(=O)C2)[O]C(=O)C3)C(=O)O)C(=O)O (stereo not shown) [[^68Ga]1h] . State its measured intake of mouse organ: Kidney.
13.44
